- Test system: K4 kissing-loop RNA reporter;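 note: bound reporter read as fluorescence of individual clusters on recovered sequencing chips by microscopy, with normalized cluster intensities fitted with a binding model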
- assay-overview: apparent KD of K4 kissing-loop reporter; higher = weaker reporter binding
- assay-context: Eterna round: R107; input ligand: FMN 200 uM
attribute-measured: apparent KD of K4 kissing-loop reporter (nM)
Number only, in nM; omit the unit.

Below, 2 sequences whose answers are already recorded.
GCGUGGCAGGCGGCCGCCACUCGGACGAGUCACAGUGAUGUUGUGGUUUGCCAGUCGUCUUCAUCGAGGACCGGGUUUGUUGCGC [Exclusion Tryptophan B GF 18] = 206
UAUUAAUUGUCAGGAUAUCGAAAUCGAGUGAUGUUCGUAAAUUAAUUAUUAUUAAUAAUAUUUAAACGAGAAGGGACAUUAUUUA [JR_SSFMNB_Sub001] = 235

Give the measured apparent KD of K4 kissing-loop reporter of CCAUUCAUUUACGAUACCAGUCUAAUAUAUUUAAUCAAAACCCUCGCCGAGUGAUGUUCGGACCCUUGGCAGCGUCUGCGAGAGG [oookmullin] .
596

Give the measured apparent KD of K4 kissing-loop reporter of UUUAACGAGUGAUGUUCGAAAAGUAAUGGUGAGGAUAUCGAUUUUUCGAGAAGGCACCUCGAAGUGAUACGAAAGUAUCGCUUCG [FMN A 4] .
173

Give the measured apparent KD of K4 kissing-loop reporter of UUUUUGGAGAAUUAUAGUGAUGUUAUGAAGGAGGAUAUCUGGAGAUGGAGAAGGCCUAGUGGCUCAGCCCUCGCGGGUGGGUGGG [ExFMNA.aD] .
667

Give the measured apparent KD of K4 kissing-loop reporter of UGUAUGUGAUUUGAUACCAGACCAGCUGGUGGUUCACGAGUGAUGUUCGUGUUGGUUUGGGUCCCUUGGCAGCAAAUCGCAUACU [KL-SSTheoB12] .
159

Give the measured apparent KD of K4 kissing-loop reporter of GGUUUAUAGGAGGAUACCAGUACGGAUAAAGUACGUUAAUAGUAGAGUGAUGUUCUAAAGUACCCUUGGCAGCUUAGAGUGAGUG [ExTheophylB.M] .
98.6

Give the measured apparent KD of K4 kissing-loop reporter of GCCAGCAGUACUGAUACCAGACUGCAUGUAGUGAUGUUGCAUAAGGGCAUAGAUGUCUCAGUCCCUUGGCAGCGGUACUGUUGCA [#10 K4 Theophylline B Same State] .
335

Give the measured apparent KD of K4 kissing-loop reporter of GGGAAGGACGGAGGAUAUGCACUGAGGAGGAGAAUAUAGUGAUGUUAUAUAAGAGGAAGGAGCUGAGUAGAAGGCCGAGGAAAGG [whbob_SS_FMNB__2th207] .
147

Give the measured apparent KD of K4 kissing-loop reporter of GGAUAGGACGGAGGAUAUGGUAGUGAUGUUACCAAACUGGUUAAACAUGUCAGAAAACUGGCAUGACCAGAAGGCUGUCCUAUCG [FmnBX 27 G10] .
112

Give the measured apparent KD of K4 kissing-loop reporter of CGCUUGGGUGCGGCCGCCACUAGAGCGUGACACGGGUCCCAAAAGGGUGCAGUGAUGUUGCAGCCUAGGACCGGGCACCUCUGGC [Beveesbe] .
107

Give the measured apparent KD of K4 kissing-loop reporter of UAGGAGUGAUGUUCCAUAUGUAAGGCCGAAGGAGCGGCAUUAUAGCCAGGUAGGUCGCGGCAGUACGUACCAGUGAUGUUGGAAA [KL-SSArg-A5] .
173

###

- Test system: MS2 coat protein
- assay-overview: apparent KD of MS2 coat protein; designed switch direction (-1 OFF switch, 1 ON switch): -1; higher = weaker reporter binding
- assay-context: Eterna round: R95; input ligand: microRNA oligo, concentration not stated
attribute-measured: apparent KD of MS2 coat protein
I'd appreciate it if you included the unit after the number.

Below, 2 sequences whose answers are already recorded.
GAUUAUGCGAGCUUUAGGGACAUGAGGAUCACCCAUGUUCGUCUUAUUGAUCUGGAUGCACUAACAUACCUAAAUCU [JMF 27] (puzzle: Sensor v3, turn-off variant 1) = 64.6 nM
UUAGGCGUCUUUGCUCGUCUUAUUUGGAGAUGACUGUUAACAUGAGGAUCACCCAUGUGUGUGGGAGCUUUGCAGUU [JR_SV3TOV2_Sub022] (puzzle: Sensor v3, turn-off variant 2) = 377 nM

Give the measured apparent KD of MS2 coat protein of UAUUAGUGAGGAUAUGGUAUAGAUAAGAUGAUGAAAGAACUCCAGAAGGCACAUGAGGAUCACCCAUGUAGUAG [JL-ex4-2.08 Jieux mod] (puzzle: Exclusion 4) .
23.7 nM

###

Parameter apparent KD of MS2 coat protein: see the listing below.
- Test system: MS2 coat protein
- assay-overview: apparent KD of MS2 coat protein; higher = weaker reporter binding
- assay-context: Eterna round: R107; input ligand: arginine 13.2 mM
Number only, in nM; omit the unit.

Below, 2 sequences whose answers are already recorded.
GACAUGAGGAUCACCCAUGUUGACUAUGAAGGAGCGUCGGAAAUGACAGGUAGGUCGCAUAGUCGACCUUGUAUUUUGUGUGUUU [EAA #9] = 12.7
GCACUACAUGAGGAUCACCCAUGUGCAGAUACCAGAGGUGUAUGCCUCCCUUGGCAGCUGCGUCGCUCUGGCAGCUUGUGGGUUG [Same State Theophylline A GF18] = 40.3

// next item, apparent KD of MS2 coat protein requested
Give the measured apparent KD of MS2 coat protein of ACAUGAGGGAUGGAUACCAGCGACAUGAGGAUCACCCAUGUAUGAGGAUCACCCAUGUUAUGCCCUUGGCAGCCACAAACAUGAG [UUYMULLIN] .
24.8

###

- Tested on: MS2 coat protein
- assay-overview: apparent KD of MS2 coat protein; designed switch direction (-1 OFF switch, 1 ON switch): -1; higher = weaker reporter binding
- assay-context: input ligand: FMN 200 uM
attribute-measured: apparent KD of MS2 coat protein (nM)
Number only, in nM; omit the unit.

CUAGCGGAUGUAGGAUAUCGGACUGUUUCAGUCUGAGAAGGACAUGAGGAUCACCCAUGUAUAGCUGCGUGAGUAGCUCGCUAG [JL ENG1 3.96] (Eterna round: R96, puzzle: Exclusion NG 1) = 39.2
CAGUACUGAGGAUAUACAUGAGGAUCACCCAUGUGGUCCAGCUAGGAAACUAGCACGUGUAGAAGGCAGUACUG [Ex3: 840] (Eterna round: R96, puzzle: Exclusion 3) = 58.3

Give the measured apparent KD of MS2 coat protein of AGUGUGAUAGGAUAUACAUGAGGAUCACCCAUGUGAAUGGUAAUGUGUCCAAGAUCAGGUAGAAGGGUCGGGUU [Eternabot (L1) Solution 56] (Eterna round: R97, puzzle: Exclusion 3) .
83.6

Give the measured apparent KD of MS2 coat protein of AGUUGGCGAGGAUAUACAUGAGGAUCACCCAUGUGAGAGAUACUGGUGAGGUCGAUUAGUAGAAGGCGCUGACA [Mat X3R4 m15] (Eterna round: R97, puzzle: Exclusion 3) .
137

Give the measured apparent KD of MS2 coat protein of GUUAUGUCAGGAUAUGCUAAUGAUGAGUGCUCAGACAUGAUGCAGAAGGGACAUGAGGAUCACCCAUGUACUAA [EX4 #11] (Eterna round: R97, puzzle: Exclusion 4) .
116

###

- Test system: MS2 coat protein
- assay-overview: apparent KD of MS2 coat protein; designed switch direction (-1 OFF switch, 1 ON switch): -1; higher = weaker reporter binding
- assay-context: input ligand: none
// label = satisfied if apparent KD of MS2 coat protein is not less than 200 nM, otherwise not satisfied

Examples with answers:
CGUUCGCGAGGAUAUGCAUUCGAGUCCACUACGUGUCUGGGACUUGAGGAUCACCCAAGUAGAAGGCGCCUCCC [salish99_ex2_r4_649] (Eterna round: R97, puzzle: Exclusion 2) = not satisfied
UAGAUACAUGAGGAUCACCCAUGUGAGGAUAUGAGAAUUAUAUUAAAUGAAUGAAUUUUCAGAAGGCACAAAGG [JR_Ex1_Sub051] (Eterna round: R97, puzzle: Exclusion 1) = satisfied

Would you say GCUUGGCGAGGAUAUACAUGAGGAUCACCCAUGUGAGAGAAUAAAGUGAGGAAGAAAAGUAGAAGGCGCUGAGG [Mat - Exclusion 3 - Mod of Salish D58] (Eterna round: R96, puzzle: Exclusion 3) shows apparent KD of MS2 coat protein at minimum 200 nM?
not satisfied

Would you say UUAAUUAAUUAUAUAAGAUCACAUGAGGAUCACCCAUGUAUAUAGGAUAUCAGCUCGUUUAGAGCUGAGAAGGAUAUACAAUAU [ExNG3/3-B2] (Eterna round: R96, puzzle: Exclusion NG 3) shows apparent KD of MS2 coat protein at minimum 200 nM?
satisfied

Would you say AAAUUGCUAGAGGAUAUCGGAUAGGAUUUAUUACGAGAAGGUUAGACAUGAGGAUCACCCAUGUUCUGUUGGGA [EX6 #24] (Eterna round: R97, puzzle: Exclusion 6) shows apparent KD of MS2 coat protein at minimum 200 nM?
not satisfied
